Below, each entry is listed alongside its reported IC50.
# assayed-system: Neuropilin-1 (Homo sapiens, UniProt O14786)
# Sequence (O14786 whole entry): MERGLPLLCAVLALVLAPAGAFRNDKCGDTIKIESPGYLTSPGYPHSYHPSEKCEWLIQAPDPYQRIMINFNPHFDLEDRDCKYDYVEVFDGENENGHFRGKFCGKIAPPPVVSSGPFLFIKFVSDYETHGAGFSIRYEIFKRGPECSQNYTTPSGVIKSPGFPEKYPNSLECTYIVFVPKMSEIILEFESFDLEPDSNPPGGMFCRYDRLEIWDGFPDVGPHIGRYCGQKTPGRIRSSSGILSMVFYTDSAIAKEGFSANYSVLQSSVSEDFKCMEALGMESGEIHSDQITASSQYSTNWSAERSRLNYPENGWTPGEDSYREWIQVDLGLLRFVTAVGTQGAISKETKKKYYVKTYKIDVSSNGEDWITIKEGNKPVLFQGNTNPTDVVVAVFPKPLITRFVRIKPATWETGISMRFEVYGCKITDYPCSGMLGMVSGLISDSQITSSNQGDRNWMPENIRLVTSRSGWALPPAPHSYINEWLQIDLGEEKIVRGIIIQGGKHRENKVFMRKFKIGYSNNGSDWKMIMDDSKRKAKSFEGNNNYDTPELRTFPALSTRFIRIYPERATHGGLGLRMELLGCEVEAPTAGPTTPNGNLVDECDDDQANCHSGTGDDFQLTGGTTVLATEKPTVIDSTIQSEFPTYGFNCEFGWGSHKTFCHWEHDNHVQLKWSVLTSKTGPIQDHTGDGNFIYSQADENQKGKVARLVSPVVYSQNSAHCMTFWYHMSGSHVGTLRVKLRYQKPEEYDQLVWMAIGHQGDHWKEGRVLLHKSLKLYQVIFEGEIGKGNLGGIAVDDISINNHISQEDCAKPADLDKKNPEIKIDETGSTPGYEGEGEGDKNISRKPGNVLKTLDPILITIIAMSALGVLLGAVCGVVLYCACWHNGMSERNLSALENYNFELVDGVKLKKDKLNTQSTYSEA
# experiment-summary: Inhibition of VEGF165-NRP1 interaction by ELISA
Numbers only here, please. The scale is µM.

Guide cases for IC50, answers given:
input_smiles=N#Cc1c(-c2ccccc2Cl)c(NCCc2ccccc2)n2c(Cl)cccc12 assayed_system="Neuropilin-1 (Homo sapiens, UniProt O14786)" measured_metric=IC50 readout_value=3
input_smiles=N#Cc1c(-c2ccccc2)c(NCCc2ccccc2Cl)n2c(Cl)cccc12 assayed_system="Neuropilin-1 (Homo sapiens, UniProt O14786)" measured_metric=IC50 readout_value=3

Given CC(C)(C)c1ccc(-c2c(C#N)c3cccc(Cl)n3c2NCCc2ccccc2)cc1 , state its recorded IC50.
14

Likewise for N#Cc1c(-c2ccccc2)c(NC2CCCCC2)n2c(Cl)cccc12 ?
29

Likewise for N#Cc1c(-c2ccccc2)c(NCCN)n2c(Cl)cccc12 ?
43
